- study_system: cyclin D1/cdk 4 enzyme (Homo sapiens, UniProt P11802)
- Construct: made in house; host or cells: Sf9 insect cells, recombinant baculovirus
- Sequence (P11802 whole entry, species assumed): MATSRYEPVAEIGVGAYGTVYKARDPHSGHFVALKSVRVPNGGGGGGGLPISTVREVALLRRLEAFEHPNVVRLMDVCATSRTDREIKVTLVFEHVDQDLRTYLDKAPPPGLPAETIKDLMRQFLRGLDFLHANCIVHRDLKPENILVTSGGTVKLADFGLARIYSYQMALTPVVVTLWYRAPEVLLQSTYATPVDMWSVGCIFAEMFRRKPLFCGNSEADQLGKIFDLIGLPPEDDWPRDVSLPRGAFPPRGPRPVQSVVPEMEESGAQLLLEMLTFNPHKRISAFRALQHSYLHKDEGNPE
- Sequence (P24385 whole entry partner, species assumed): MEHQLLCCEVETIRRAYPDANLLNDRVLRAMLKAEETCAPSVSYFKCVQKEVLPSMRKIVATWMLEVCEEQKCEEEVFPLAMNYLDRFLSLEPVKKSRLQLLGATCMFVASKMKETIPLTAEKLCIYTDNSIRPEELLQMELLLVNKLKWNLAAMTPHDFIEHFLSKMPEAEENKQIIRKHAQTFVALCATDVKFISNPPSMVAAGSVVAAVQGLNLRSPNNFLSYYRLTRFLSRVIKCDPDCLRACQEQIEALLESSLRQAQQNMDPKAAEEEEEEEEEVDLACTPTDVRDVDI
- test_description: CDK4 ELISA kinase assay (phospho-Rb ser 795 detection)
- Type: biochemical
- condition_notes: In Vitro Enzyme Assays, 200 μM ATP, read-out: CDK4 IC50
property_label: IC50 (nM)

compound	measurement_units	reported_measurement
O=C1NC(=O)c2ccc(Br)cc2/C1=C/NCc1ccc(NC(=O)C(F)(F)F)c(O)c1 [Example 218]	nM	150

A. COc1cc(CN/C=C2\C(=O)NC(=O)c3ccc(-c4ccccc4)cc32)cc(O)c1OC [Example 86]
B. O=C1NC(=O)c2ccc(Br)cc2/C1=C/NCc1ccc(NC(=O)C(Cl)Cl)c(O)c1 [Example 320]
Problem: Consider entries A and B . Which has the numerically lower IC50? Respond using the label that marks the chosen record.
Result: A

a. COc1cc(CN/C=C2\C(=O)NC(=O)c3ccc(Br)cc32)cc(OC(C)=O)c1OC [Example 77]
b. CN1CCC(N(C)CC2CCN(c3ccc(N/C=C4\C(=O)NC(=O)c5ccc(I)cc54)cc3)CC2)C1 (centres unmarked) [Example 455]
c. O=C1NC(=O)c2ccc(Br)cc2/C1=C/Nc1ccc(O)c(C(=O)O)c1 [Example 58]
d. CC(=O)Oc1ccc(CN/C=C2\C(=O)NC(=O)c3ccccc32)cc1OC(C)=O [Example 47]
Problem: Exam item: list the entries in increasing order of IC50. Please, when replying, give the labels in the order that was requested.
Result: a, d, b, c

A. CN1CCN(c2ccc(N/C=C3\C(=O)NC(=O)c4ccc(I)cc43)c(F)n2)CC1 [Example 445]
B. O=C1NC(=O)c2ccc(Br)cc2/C1=C/NCCCN1CCOCC1 [Example 310]
Problem: Consider entries A and B . Which has the numerically lower IC50? Respond using the label that marks the chosen record.
Result: A
(A: 320 nM, B: 9400 nM)

P. CN(C)CCSc1ccc(N/C=C2\C(=O)NC(=O)c3ccc(Br)cc32)cc1 [Example 229]
Q. COc1cc2c(cc1-c1ccoc1)/C(=C/Nc1ccc(N3CCN(C)CC3)cc1)C(=O)NC2=O [Example 254]
R. COc1ccc(CN/C=C2\C(=O)NC(=O)c3ccc(I)cc32)cc1O [Example 80]
Problem: Exam item: list the entries in increasing order of IC50. Please, when replying, give the labels in the order that was requested.
Result: R, P, Q
(R: 10 nM, P: 240 nM, Q: 7400 nM)

A. CC(=O)Nc1ccc(CN/C=C2\C(=O)NC(=O)c3ccc(Br)cc32)cc1OC(C)=O [Example 141]
B. O=C1NC(=O)c2ccc(I)cc2/C1=C/Nc1ccc(N2CCC[C@H]2CO)c(F)c1 (stereo in doubt) [Example 426]
Problem: Consider entries A and B . Which has the numerically lower IC50? Respond using the label that marks the chosen record.
Result: A

* * *

- System: MCF-7
- test_description: Cytotoxicity assay (SRB), MCF-7
- Format: cell-based
- condition_notes: Homo sapiens, MCF7, 72 h, MCF-7 cells, SRB, three days; read-out: In Vitro Cellular Activity IC50 MCF-7
property_label: IC50 (µM)
Write the number in µM without appending the unit.

compound	measurement_units	IC50
COc1cc(CN/C=C2\C(=O)NC(=O)c3ccc(Br)cc32)ccn1 [Example 222]	µM	13
C[C@@H]1CN(c2c(F)cc(N/C=C3\C(=O)NC(=O)c4ccc(Br)cc43)cc2F)C[C@H](C)N1 [Example 381]	µM	4.3
CN1CCCC1c1ccc(NC=C2C(=O)NC(=O)c3ccc(I)cc32)cc1 (stereo not shown) [Example 361]	µM	2.6
C[C@@H]1CN(c2ccc(N/C=C3\C(=O)NC(=O)c4ccc(-c5ccoc5)cc43)cc2)C[C@H](C)N1C [Example 241]	µM	1.3
CN1CCN(c2ccc(N/C=C3\C(=O)NCc4ccc(Br)cc43)cc2)CC1 [Example 223]	µM	3.2
O=C1NC(=O)c2ccc(Br)cc2/C1=C/Nc1ccc(CN2CCCCC2)cc1 [Example 24]	µM	3.1
O=C1NC(=O)c2ccccc2/C1=C/Nc1ccc(CN2CCCCC2)cc1 [Example 13]	µM	7.3
COC[C@H]1CCCN1Cc1ccc(N/C=C2\C(=O)NC(=O)c3ccc(-c4ccc(OC(C)C)cc4)cc32)cc1 [Example 300]	µM	8.7

Problem: Which IC50 value is on record for CCCNc1ccc(CN/C=C2\C(=O)NC(=O)c3ccc(I)cc32)cc1O [Example 366] ?
Result: 6.9

Problem: Which IC50 value is on record for O=C1NC(=O)c2ccc(Br)cc2/C1=C/NCc1ccc(OCCN2CCCC2)c(O)c1 [Example 143] ?
Result: 4.3

Problem: Which IC50 value is on record for COc1ccc(CN/C=C2\C(=O)NC(=O)c3ccc(-n4cccc4)cc32)cc1O [Example 71] ?
Result: 7.8

Problem: Which IC50 value is on record for COc1ccc2c(c1)/C(=C/NCc1ccc(OC)c(O)c1)C(=O)NC2=O [Example 90] ?
Result: 12

Problem: Which IC50 value is on record for COC(=O)[C@H]1CCCN1Cc1ccc(NC=C2C(=O)NC(=O)c3ccc(I)cc32)cc1 [Example 367] ?
Result: 13

Problem: Which IC50 value is on record for CCCOc1cnc(CNC=C2C(=O)NC(=O)c3ccc(I)cc32)cc1O [Example 364] ?
Result: 0.88

Problem: Which IC50 value is on record for O=C1NC(=O)c2ccc(N3CCCCC3)cc2/C1=C/Nc1ccc(CN2CCCCC2)cc1 [Example 118] ?
Result: 4.4

Problem: Which IC50 value is on record for O=C1NC(=O)c2ccc(Br)cc2/C1=C/NCc1ccc(NC(=O)C(F)(F)F)c(O)c1 [Example 218] ?
Result: 19

Problem: Which IC50 value is on record for CC(=O)Oc1cc(CN/C=C2\C(=O)NC(=O)c3ccc(Br)cc32)cc2c1OC(C)(C)O2 [Example 268] ?
Result: 35

Problem: Which IC50 value is on record for COc1cccc(-c2ccc3c(c2)/C(=C/Nc2ccc(CN4CCCCC4)cc2)C(=O)NC3=O)c1 [Example 117] ?
Result: 2.7

Problem: Which IC50 value is on record for O=C1NC(=O)c2ccc(Br)cc2/C1=C/Nc1ccc2c(c1)CCN2 [Example 214] ?
Result: 14
